- tested.system: rat α3β4 receptors (Rattus norvegicus, UniProt P04757+P12392)
- Construct: expressed in transfected cells; host or cells: HEK cells (KXα3β4R2)
- protocol.details: [3H]epibatidine competition binding on membranes of HEK cells transfected with rat α3β4 receptors
pKi: −log10 of the molar value.
observable: pKi

In [3]: df
Out[3]:
                                   compound  observable  assay_result
0  C1=C(c2cccnc2)CC2CC1CN2Cc1ccccc1 (stereo not shown) [SR 17004]         pKi          6.71

###

- tested.system: rat α4β2 receptors (Rattus norvegicus, UniProt P09483+P12390)
- Construct: expressed in transfected cells; host or cells: HEK cells (KXα4β2R2)
- protocol.details: [3H]epibatidine competition binding on membranes of HEK cells transfected with rat α4β2 receptors
Listing: Ki of selected molecules
observable: Ki

                                   molecule  assay_result
0  CN1C2CCCC1CC(N1C(=O)Cc3ccccc31)C2 (stereo not shown)       > 10 µM
1  CN1C2CCC1CC(N1C(=O)Cc3ccccc31)C2 (stereo not shown)       > 10 µM
2  CN1C2C=C(c3cccnc3)CC1CCC2 (stereo not shown)       0.01 µM
3  O=C1Cc2ccccc2N1C1CC2CCCC(C1)N2 (stereo not shown)       > 10 µM

Just for reference, patent US8697722B2 is where these values come from.
